These entries and their values trace back to paper PMC6345968.

Target: Hsp90 in C. albicans (SC5314) lysate (Candida albicans)
Construct: endogenous in cells; host or cells: C. albicans SC5314 whole-cell lysate
Sequence (P46598 whole entry): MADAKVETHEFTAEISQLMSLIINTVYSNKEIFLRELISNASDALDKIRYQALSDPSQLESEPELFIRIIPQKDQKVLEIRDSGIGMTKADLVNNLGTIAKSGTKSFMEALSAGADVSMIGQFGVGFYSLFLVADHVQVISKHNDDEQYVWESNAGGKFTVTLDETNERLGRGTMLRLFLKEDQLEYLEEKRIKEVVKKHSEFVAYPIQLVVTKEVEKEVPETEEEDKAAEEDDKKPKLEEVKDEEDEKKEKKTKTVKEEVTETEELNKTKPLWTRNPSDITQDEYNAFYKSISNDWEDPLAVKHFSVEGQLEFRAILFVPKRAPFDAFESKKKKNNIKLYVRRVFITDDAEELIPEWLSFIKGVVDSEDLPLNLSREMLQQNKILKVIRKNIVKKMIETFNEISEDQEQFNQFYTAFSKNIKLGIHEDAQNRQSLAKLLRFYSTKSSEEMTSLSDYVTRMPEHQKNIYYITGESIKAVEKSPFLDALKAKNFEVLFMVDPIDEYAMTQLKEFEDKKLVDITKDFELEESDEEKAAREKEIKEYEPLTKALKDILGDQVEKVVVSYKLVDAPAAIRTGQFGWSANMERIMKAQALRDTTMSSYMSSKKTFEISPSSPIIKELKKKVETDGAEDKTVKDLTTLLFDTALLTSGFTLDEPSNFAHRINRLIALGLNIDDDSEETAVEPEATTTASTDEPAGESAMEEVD
Assay: biochemical
Type: binding
Conditions: SC5314 lysate, 12.346 nM compound, raw
RESULT TYPE: FP signal
// keep it numeric: no unit symbol after the value

Recorded FP signal, per entry:
[
  {
    "MOLECULE": "CCON=C1/C=C/C=C\\[C@H]2O[C@H]2C[C@@H](C)OC(=O)c2c(O)cc(O)c(Cl)c2C1",
    "FP signal": 81
  },
  {
    "MOLECULE": "Cc1ccc(CON=C2C=CC=CC3OC3CC(C)OC(=O)c3c(O)cc(O)c(Cl)c3C2)cc1 (mixture of isomers)",
    "FP signal": 199
  },
  {
    "MOLECULE": "COc1ccccc1CON=C1C=CC=CC2OC2CC(C)OC(=O)c2c(O)cc(O)c(Cl)c2C1 (mixture of isomers)",
    "FP signal": 193
  },
  {
    "MOLECULE": "CC1CC2OC2C=CC=CC(=NOCc2cccc(F)c2)Cc2c(Cl)c(O)cc(O)c2C(=O)O1 (mixture of isomers)",
    "FP signal": 193
  },
  {
    "MOLECULE": "COc1ccc(CON=C2C=CC=CC3OC3CC(C)OC(=O)c3c(O)cc(O)c(Cl)c3C2)cc1 (mixture of isomers)",
    "FP signal": 200
  }
]

Qu. Give FP signal for CC1CC2OC2C=CC=CC(=NOCc2ccccc2)Cc2c(Cl)c(O)cc(O)c2C(=O)O1 (mixture of isomers) tested on Hsp90 in C. albicans (SC5314) lysate (Candida albicans).
Ans. 197

Qu. Give FP signal for C[C@@H]1C[C@@H]2O[C@@H]2/C=C\C=C\C(=NOCc2ccccc2Cl)Cc2c(Cl)c(O)cc(O)c2C(=O)O1 tested on Hsp90 in C. albicans (SC5314) lysate (Candida albicans).
Ans. 202

Qu. Give FP signal for COc1ccc(CON=C2C=CC=CC3OC3CC(C)OC(=O)c3c(O)cc(O)cc3C2)cc1 (stereo not drawn) tested on Hsp90 in C. albicans (SC5314) lysate (Candida albicans).
Ans. 199

Qu. Give FP signal for CC1CC2OC2C=CC=CC(=NOCCN2CCCC2=O)Cc2c(Cl)c(O)cc(O)c2C(=O)O1 (stereo not drawn) [KF58333, reference compound] tested on Hsp90 in C. albicans (SC5314) lysate (Candida albicans).
Ans. 71
